B1: 2K2A (parent)
chain: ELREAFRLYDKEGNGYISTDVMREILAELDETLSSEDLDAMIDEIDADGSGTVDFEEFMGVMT

variants of: B1; test: folding stability dG (cDNA display proteolysis); higher = more stable; details: PBS, room temperature
Exercise: state measured folding stability dG for each of the variants provided.
Answers are plain numbers, in kcal/mol.

For orientation, consider the following solved cases.
INSERT INTO assay_data (seq, measurement_label, measurement) VALUES
  ('ELREAFRLYDKEGNGYISTDVMREILAELDETLSSEDLDAMIDTIDADGSGTVDFEEFMGVMT [E44T]', 'folding stability dG', 1.93),
  ('ELREAFRLYDKEGNGYISTDVMREILAELDETLSSEDLDGMIDEIDADGSGTVDFEEFMGVMT [A40G]', 'folding stability dG', 1.34),
  ('ELREAMRLYDKEGNGYISTDVMREILAELDETLSSEDLDAMIDEIDADGSGTVDFEEFMGVMT [F6M]', 'folding stability dG', 0.623),
  ('ELREAKRLYDKEGNGYISTDVMREILAELDETLSSEDLDAMIDEIDADGSGTVDFEEFMGVMT [F6K]', 'folding stability dG', 0.192),
  ('ELREAFRLYDKEGNGYISTDVMRHILAELDETLSSEDLDAMIDEIDADGSGTVDFEEFMGVMT [E24H]', 'folding stability dG', 2.14);

Can you give me folding stability dG for all of these, one by one?
1. ELREAFRLYDKEGNGYISTDVMWEILAELDETLSSEDLDAMIDEIDADGSGTVDFEEFMGVMT [R23W]
2. ELREAFRLYDKEGNGYISTDVMREILAELDETLSSEDLDAMIDEIDADGSGTVDFEEFMGVYT [M62Y]

Completion:
1. 0.731
2. 1.58

Can you give me folding stability dG for all of these, one by one?
1. TLREAFRLYDKEGNGYISTDVMREILAELDETLSSEDLDAMIDEIDADGSGTVDFEEFMGVMT [E1T]
2. ELREAFRLYDKEGNGYISTDVMREILAELDETLSSEDLDAMIDEIDADGSGTVDFEYFMGVMT [E57Y]
3. ELREAFRLYDKEGNGYISTDVMREILAELDETWSSEDLDAMIDEIDADGSGTVDFEEFMGVMT [L33W]
4. ELREAFRLYDKEGNGYISTDVMREILAELDETLSSEDLDAMMDEIDADGSGTVDFEEFMGVMT [I42M]
5. ELREAFRLYDKEGNGYISTDVMREILAELDETLSSEDLDAMIDEIDADGSGTVDFEEFMGYMT [V61Y]
6. ELREAFRLYDKEGNGYISTDVMREILAELDETLSSEDMDAMIDEIDADGSGTVDFEEFMGVMT [L38M]

Completion:
2.21
1.58
1.83
1.72
2.69
1.26

Can you give me folding stability dG for all of these, one by one?
1. ELREAFRLYDKEGNGYISTDVMREILAELDETLSSEDLDAMIDEIDADGTGTVDFEEFMGVMT [S50T]
2. ELREAFRLYDKEGNGYISTDVMREILAELCETLSSEDLDAMIDEIDADGSGTVDFEEFMGVMT [D30C]
3. ELREAFVLYDKEGNGYISTDVMREILAELDETLSSEDLDAMIDEIDADGSGTVDFEEFMGVMT [R7V]
4. ELREAFRLYDKEGNGDISTDVMREILAELDETLSSEDLDAMIDEIDADGSGTVDFEEFMGVMT [Y16D]
5. ELREAFRLYDKEGNGYISTDVMREILAELHETLSSEDLDAMIDEIDADGSGTVDFEEFMGVMT [D30H]
6. ELREAFRLYDKEGNGYISTDVMREILAELDETLSSEDLDAMIDEIDADGSGTVDFEMFMGVMT [E57M]

Completion:
1: 1.88; 2: 1.97; 3: 1.62; 4: -0.18; 5: 2.08; 6: 2.37

Can you give me folding stability dG for all of these, one by one?
1. ELVEAFRLYDKEGNGYISTDVMREILAELDETLSSEDLDAMIDEIDADGSGTVDFEEFMGVMT [R3V]
2. ELREAFRLYDKEGNGYISTDVMREILAELDETLSSEDLDAMIDEIIADGSGTVDFEEFMGVMT [D46I]
3. ELREAFRLYDKEGNGYISTDVMREILEELDETLSSEDLDAMIDEIDADGSGTVDFEEFMGVMT [A27E]
4. ELREAFDLYDKEGNGYISTDVMREILAELDETLSSEDLDAMIDEIDADGSGTVDFEEFMGVMT [R7D]
5. ELREAFRLYDEEGNGYISTDVMREILAELDETLSSEDLDAMIDEIDADGSGTVDFEEFMGVMT [K11E]
6. ELREAFRLYDKEGNGYISTDVMREILAELDETLSDEDLDAMIDEIDADGSGTVDFEEFMGVMT [S35D]
7. ELREAFRLYDKEGNGYISTDVMREILAVLDETLSSEDLDAMIDEIDADGSGTVDFEEFMGVMT [E28V]

Completion:
1: 1.77; 2: 0.796; 3: 1.12; 4: 1.81; 5: 1.36; 6: 1.92; 7: 1.76
